# IC50 annotations
# Test system: DU-145
# MEASUREMENT PROTOCOL: Cytotoxicity against human DU145 cells assessed as growth inhibition after 24 hrs by CCK8 assay
# Assay type: functional, cell-based
# CONDITION SET: DU-145, 24 h
All answers are understood in µM, so give the number only.

The examples below pair each entry with its known result.
{"COMPOUND": "c1ccc(N2CCN(CCc3ccc(COc4ccc5c(c4)CCCC5)cc3)CC2)nc1", "UNIT ABBREV": "µM", "IC50": 11.2}
{"COMPOUND": "CC(C)(C)NC(=O)[C@H]1CC[C@H]2[C@@H]3CC[C@H]4NC(=O)C=C[C@]4(C)[C@H]3CC[C@]12C [FINASTERIDE]", "UNIT ABBREV": "µM", "IC50": 13.5}
{"COMPOUND": "Cl.Cl.Clc1cccc(N2CCN(CCc3ccc(COc4ccc5c(c4)CCCC5)cc3)CC2)c1", "UNIT ABBREV": "µM", "IC50": 0.86}
{"COMPOUND": "Cc1ccc(N2CCN(CCc3ccc(COc4ccc5c(c4)CCCC5)cc3)CC2)cc1", "UNIT ABBREV": "µM", "IC50": 25.1}

Please find the next compound below.
Incoming: Please list IC50 recorded for the compound `Cl.Cl.Fc1ccc(N2CCN(CCc3ccc(COc4ccc5c(c4)CCCC5)cc3)CC2)cc1`
Outgoing: 0.9

###

The following compounds are shown together with reported pIC50 values.
# TESTED ON: Alpha-1D adrenergic receptor (Homo sapiens, UniProt P25100)
# Sequence (P25100 whole entry): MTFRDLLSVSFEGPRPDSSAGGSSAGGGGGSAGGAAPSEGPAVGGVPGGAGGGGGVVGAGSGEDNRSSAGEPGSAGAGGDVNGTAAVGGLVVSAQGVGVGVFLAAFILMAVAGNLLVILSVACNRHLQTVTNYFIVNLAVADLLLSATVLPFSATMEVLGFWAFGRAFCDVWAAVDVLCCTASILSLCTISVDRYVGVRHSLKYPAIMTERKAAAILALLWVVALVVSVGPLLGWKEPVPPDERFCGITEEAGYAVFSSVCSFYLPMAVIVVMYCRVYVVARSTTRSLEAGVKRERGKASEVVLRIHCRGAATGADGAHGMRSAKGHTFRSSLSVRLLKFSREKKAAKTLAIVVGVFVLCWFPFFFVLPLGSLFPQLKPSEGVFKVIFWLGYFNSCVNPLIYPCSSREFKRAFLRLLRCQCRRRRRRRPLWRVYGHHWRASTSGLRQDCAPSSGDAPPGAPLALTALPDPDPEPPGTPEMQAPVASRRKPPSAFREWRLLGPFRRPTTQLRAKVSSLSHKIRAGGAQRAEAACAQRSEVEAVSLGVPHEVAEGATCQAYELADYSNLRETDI
# MEASUREMENT PROTOCOL: Antagonist activity at alpha 1D adrenergic receptor (unknown origin) by luciferase reporter gene assay
FYI, pIC50 means -log10 of a concentration in mol per litre.

Some solved cases for reference:
{"STRUCTURE": "Cl.Cl.Fc1ccc(N2CCN(CCc3ccc(COc4ccc5c(c4)CCCC5)cc3)CC2)cc1", "TESTED ON": "Alpha-1D adrenergic receptor (Homo sapiens, UniProt P25100)", "TEST RESULT": 6.99}
{"STRUCTURE": "COc1ccc(N2CCN(CCc3ccc(COc4ccc5c(c4)CCCC5)cc3)CC2)cc1.Cl.Cl", "TESTED ON": "Alpha-1D adrenergic receptor (Homo sapiens, UniProt P25100)", "TEST RESULT": 6.13}
{"STRUCTURE": "Cl.Cl.Clc1cccc(N2CCN(CCc3ccc(COc4ccc5c(c4)CCCC5)cc3)CC2)c1", "TESTED ON": "Alpha-1D adrenergic receptor (Homo sapiens, UniProt P25100)", "TEST RESULT": 6.54}

Incoming: Given `Cl.c1ccc(C2CCN(CCc3ccc(COc4ccc5c(c4)CCCC5)cc3)CC2)cc1` , report its pIC50 on Alpha-1D adrenergic receptor (Homo sapiens, UniProt P25100).
Outgoing: 6.34

Incoming: Name the value of pIC50 reported for `Cc1cccc(N2CCN(CCc3ccc(COc4ccc5c(c4)CCCC5)cc3)CC2)c1.Cl.Cl` when tested on Alpha-1D adrenergic receptor (Homo sapiens, UniProt P25100).
Outgoing: 6.08

Each recorded value in this set is attributed to ChEMBL document CHEMBL4219197.
